System: Escherichia coli TOP10;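 note: peptides expressed intracellularly from a pBAD plasmid library in pooled LB shake-flask culture, induced with 0.3% L-arabinose, DNA abundance read by NGS, three biological replicates, DESeq2 with apeglm shrinkage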
ASSAY_PROTOCOL: shrunken log2 fold change of peptide-encoding DNA abundance (4.5 h post-induction vs induction); higher = less antimicrobial activity (less host growth inhibition)
SETTINGS: time post-induction: 4.5 h; library: site-saturation at positions 5, 18, 19, 20
Please provide measured shrunken log2 fold change for the entries that follow.

Consider the sequence shown here: RRIRVRPPRLPRPRPRPMRVPRP What is its recorded shrunken log2 fold change?
0.0609

Next: RRIRERPPRLPRPRPRPAHPPRP
-0.0581

Next: RRIRIRPPRLPRPRPRPTENPRP
0.0227

Next: RRIRMRPPRLPRPRPRPYIDPRP
-0.227

Next: RRIRHRPPRLPRPRPRPNQMPRP
-0.0904

Next: RRIRGRPPRLPRPRPRPRDNPRP
0.0439

Next: RRIRLRPPRLPRPRPRPMTGPRP
-0.0115

Next: RRIRCRPPRLPRPRPRPLVKPRP
-0.0116

Next: RRIRHRPPRLPRPRPRPIYLPRP
-0.211

Next: RRIRARPPRLPRPRPRPPENPRP
0.576

Next: RRIRYRPPRLPRPRPRPDDHPRP
-0.264

Next: RRIRIRPPRLPRPRPRPCKLPRP
-0.167

Next: RRIRNRPPRLPRPRPRPMATPRP
-0.0123

Next: RRIRARPPRLPRPRPRPEWDPRP
1.13

Next: RRIRERPPRLPRPRPRPFSAPRP
-0.161

Next: RRIRCRPPRLPRPRPRPHTSPRP
-0.498

Next: RRIRDRPPRLPRPRPRPVTEPRP
0.0911

Next: RRIRHRPPRLPRPRPRPQWAPRP
-0.018

Next: RRIRKRPPRLPRPRPRPLMDPRP
0.16

Next: RRIRDRPPRLPRPRPRPPPKPRP
1.09

Next: RRIRYRPPRLPRPRPRPSDSPRP
-0.191

Next: RRIRCRPPRLPRPRPRPDNDPRP
-0.124

Next: RRIRCRPPRLPRPRPRPMTIPRP
-0.128

Next: RRIRNRPPRLPRPRPRPECKPRP
0.0615

Next: RRIRLRPPRLPRPRPRPFFDPRP
-0.0987

Next: RRIRFRPPRLPRPRPRPCFVPRP
-0.578

Next: RRIRVRPPRLPRPRPRPRQHPRP
0.174

Next: RRIRSRPPRLPRPRPRPGLYPRP
-0.106

Next: RRIRNRPPRLPRPRPRPSLWPRP
0.159

Next: RRIRHRPPRLPRPRPRPTRYPRP
-0.453

Next: RRIRRRPPRLPRPRPRPPYLPRP
0.0685

Next: RRIRKRPPRLPRPRPRPCADPRP
0.006

Next: RRIRRRPPRLPRPRPRPYRIPRP
-0.594

Next: RRIRQRPPRLPRPRPRPQSFPRP
-0.0179

Next: RRIRRRPPRLPRPRPRPKFEPRP
0.0131

Next: RRIRCRPPRLPRPRPRPHEQPRP
-0.15

Next: RRIRNRPPRLPRPRPRPTVPPRP
-0.233

Next: RRIRYRPPRLPRPRPRPKSQPRP
-0.176

Next: RRIRQRPPRLPRPRPRPPLFPRP
0.838

Next: RRIRDRPPRLPRPRPRPPQYPRP
-0.0943

Next: RRIRTRPPRLPRPRPRPWGYPRP
-0.0354

Next: RRIRHRPPRLPRPRPRPYDNPRP
-0.0737

Next: RRIRERPPRLPRPRPRPHWIPRP
-0.117

Next: RRIRNRPPRLPRPRPRPSHTPRP
-0.412

Next: RRIRVRPPRLPRPRPRPPAIPRP
0.376

Next: RRIRSRPPRLPRPRPRPSYRPRP
-0.131

Next: RRIRMRPPRLPRPRPRPGHGPRP
0.32

Next: RRIRYRPPRLPRPRPRPYTVPRP
-0.00544

Next: RRIRFRPPRLPRPRPRPWFFPRP
-0.393

Next: RRIRNRPPRLPRPRPRPYAYPRP
-0.533

Next: RRIRERPPRLPRPRPRPTLHPRP
-0.0201

Next: RRIRMRPPRLPRPRPRPIVNPRP
-0.0202

Next: RRIRPRPPRLPRPRPRPCSQPRP
-0.257

Next: RRIRVRPPRLPRPRPRPQDMPRP
-0.736

Next: RRIRIRPPRLPRPRPRPDSYPRP
0.072

Next: RRIRRRPPRLPRPRPRPDEAPRP
0.376

Next: RRIRERPPRLPRPRPRPQYHPRP
-0.172

Next: RRIRQRPPRLPRPRPRPEQIPRP
-0.0247

Next: RRIRMRPPRLPRPRPRPAAEPRP
2.71

Next: RRIRCRPPRLPRPRPRPQTHPRP
0.0541

Next: RRIRGRPPRLPRPRPRPHRWPRP
0.252

Next: RRIRYRPPRLPRPRPRPMPTPRP
0.0288

Next: RRIRLRPPRLPRPRPRPMCRPRP
-0.0985
